Cond: in propionic acid, 323.65 K

Chemical smiles: O=C(O)CCCC(=O)O
solubility (mole fraction): 0.509

* * *

Cond: in cyclohexanone, 298.45 K
Property label: solubility (mole fraction)

Chemical smiles: O=C(O)CCCC(=O)O
Measured result: 0.167

* * *

Cond: in ε-caprolactone, 308.55 K
Property label: solubility (mole fraction)

Chemical smiles: O=C(O)CCCC(=O)O
Property label: solubility (mole fraction)
Measured result: 0.274

* * *

Cond: in cyclohexanone, 294.15 K

Chemical smiles: O=C(O)CCCC(=O)O
solubility (mole fraction): 0.153

* * *

Cond: in cyclohexanone, 335.25 K

Chemical smiles: O=C(O)CCCC(=O)O
solubility (mole fraction): 0.437
